relative viability EC50 values by entry
system: U2OS; experiment: relative viability EC50 (midpoint between 100% and the lowest measured viability); higher = less toxic; details: 72 h

molecule: CN(C)CCc1c[nH]c2ccc(Cn3cncn3)cc12
observed_value: > 10 µM
//
molecule: C/C(=C\C(N)C(=O)O)CP(=O)(O)O (stereo not drawn)
observed_value: > 10 µM
//
molecule: C[C@H]1CC[C@H](n2c3cnccc3c3cnc(Nc4ccc5c(n4)CCN(C(=O)CO)C5)nc32)CC1
observed_value: > 10 µM
//
molecule: Cc1c(C)c2c(c(C)c1O)CCC(C)(C(=O)O)O2 (stereo not drawn)
observed_value: > 10 µM
//
molecule: c1ccc(Cn2c(-c3ccc(OC[C@H](C4CCNCC4)n4c(-c5ccccc5)nc5ccccc54)cc3)nc3ccccc32)cc1
observed_value: 3.14 µM
//
molecule: CCc1oc2ccccc2c1C(=O)c1cc(Br)c(O)c(Br)c1
observed_value: > 10 µM
//
molecule: CCCC(=O)O[C@]1(C(=O)CCl)[C@@H](C)C[C@H]2[C@@H]3CCC4=CC(=O)C=C[C@]4(C)[C@@]3(F)C(=O)C[C@@]21C [clobetasone-butyrate]
observed_value: > 10 µM

Then there is this molecule:
[ask] Provide relative viability EC50, tested on U2OS, for O=C1Nc2ccc(Cl)c3c2C1(CCCCN1CC=C(c2ccc(Cl)cc2)CC1)CCC3 (stereo not drawn) .
[reply] 2.74 µM

###

test system: Calu-3; test: cell viability relative to DMSO; higher = less toxic; settings: 72 h; 10000 nM
metric_name: cell viability (%)
# output: bare number, implied unit %

Example entries and their recorded answers appear below.
compound: CC(N)C12CC3CC(CC(C3)C1)C2 (configuration not stated)
tested_system: Calu-3
unit_string: %
cell viability: 95.6
--
compound: Cc1ccc(S(=O)(=O)NC(=O)NN2CCCCCC2)cc1 [tolazamide]
tested_system: Calu-3
unit_string: %
cell viability: 93.3
--
compound: CS(=O)(=O)Nc1ccc(-c2coc3cc(OCc4cccc(C(=O)O)c4)ccc3c2=O)cc1
tested_system: Calu-3
unit_string: %
cell viability: 103
--
compound: CCCCNC(=O)[C@@H]1Cc2ccccc2N1C(=O)[C@@H](N)CC [butabindide]
tested_system: Calu-3
unit_string: %
cell viability: 128
--
compound: CC(=O)c1cc2c(o1)C(=O)c1ccccc1C2=O
tested_system: Calu-3
unit_string: %
cell viability: 56.4

[ask] Provide one value: measured cell viability of CCNC(=O)N1CCN(CCCC(c2ccc(F)cc2)c2ccc(F)cc2)CC1 [amperozide]
[reply] 94.4

[ask] Provide one value: measured cell viability of CCOC1O[C@H]([C@@H](COCc2ccccc2)OCc2ccccc2)[C@H](OCc2ccccc2)[C@H]1O (some centres not stated) [tribenoside]
[reply] 106

###

drug-induced phospholipidosis values by entry
tested on: A549-ACE2; assay: drug-induced phospholipidosis relative to tamoxifen; higher = more phospholipidosis; settings: 30 µM; 24 h
# output: bare number, implied unit %

compound: CC1=C(C(=O)OC2CCCCC2)C(c2ccc([N+](=O)[O-])cc2)C2=C(CC(C)(C)CC2=O)N1 (centres undefined)
tested_system: A549-ACE2
unit_string: %
drug-induced phospholipidosis: 3.32

[ask] Provide one value: measured drug-induced phospholipidosis of CNCCCCOc1ccccc1Cc1ccccc1
[reply] 96.4

[ask] Provide one value: measured drug-induced phospholipidosis of c1cncc(CN2CCC(n3ncc4c(N5CCOCC5)nc(-c5ccc6[nH]ccc6c5)nc43)CC2)c1
[reply] 10.3

[ask] Provide one value: measured drug-induced phospholipidosis of C=C1CC[C@@H]2[C@](C)(CO)[C@H](O)CC[C@@]2(C)[C@@H]1C/C=C1/C(=O)OC[C@H]1O [andrographolide]
[reply] 25
